method: photochromic response on an optical bench (sensitivity, saturation optical density, bleach rate) of imbibed test squares
Format: physicochemical
conditionInfo: UV exposure continued for 20 minutes; 75° F. (23.9° C.)
This section presents compounds with their documented OD @ SATURATION values.
Note: the reply should be a number with no unit written.

* COc1cccc(C2(c3ccccc3)C=Cc3c(ccc4c5c(ccc34)OC(C)C5)O2)c1 (stereo not drawn) [Example 5] | 0.74
* CC1Cc2c(ccc3c4c(ccc23)OC(c2ccccc2)(c2cccc(F)c2)C=C4)O1 (stereo not drawn) [Example 4] | 0.76
* CC1Cc2c(ccc3c4c(ccc23)OC(c2ccccc2)(c2cccc(C(F)(F)F)c2)C=C4)O1 (stereo not drawn) [Example 3] | 0.74
* COc1ccc2c3c(ccc2c1)OC(c1ccccc1)(c1ccccc1)C=C3 [Comparative Example 2, reference compound] | 0.73
* C1=CC(c2ccccc2)(c2ccccc2)Oc2ccc3ccccc3c21 [Comparative Example 1, 3,3-diphenyl-3H-naphtho[2,1-b]pyran, reference compound] | 0.36

Okay, now this compound:
I am curious: what OD @ SATURATION value has been reported for CC1Cc2c(ccc3c4c(ccc23)OC(c2ccccc2)(c2ccccc2)C=C4)O1 (stereo not drawn) [Example 2] ? 0.66
